Tested on: CU-ACC2
Experiment: area under concentration-response curve (viability) (AUC (a.u.)); higher = less active
Conditions: 48 h
Property Measured: area under concentration-response curve
Give the value as a plain number.

Clc1cccc(-c2ccc(-c3nnc(CCCc4ccc5cccnc5n4)o3)cc2)c1 yielded area under concentration-response curve of 627

CC1(C)CC[C@@]2(CC[C@]3(C)\C(=C/C[C@@H]4[C@@]5(C)C[C@@H](O)[C@H](O)C(C)(C)[C@@H]5CC[C@@]34C)[C@@H]2C1)C(O)=O yielded area under concentration-response curve of 574

Nc1ncnc2c1C(=O)N(c1ccc([C@H]3CC[C@H](CC(=O)O)CC3)cc1)CCO2 yielded area under concentration-response curve of 554

C=CCn1c(=O)c2cnc(Nc3ccc(N4CCN(C)CC4)cc3)nc2n1-c1cccc(C(C)(C)O)n1 yielded area under concentration-response curve of 531

N[S+](=O)([O-])c1cc2c(cc1Cl)NCN[S+]2(=O)[O-] yielded area under concentration-response curve of 563

O=C1Nc2cc(Br)ccc2/C1=C1/Nc2ccccc2/C1=N\O yielded area under concentration-response curve of 515

C=CC(=O)Nc1cccc(Sc2nc(Nc3ccc(N4CCN(C)CC4)cc3)ncc2Cl)c1 yielded area under concentration-response curve of 388

Cc1cc(O)c(-c2ccc([C@@H](C)CN(C)C)cc2)c2c1[nH]c(=O)c1sccc12 yielded area under concentration-response curve of 346

Clc1ccc(Cn2c(CN3CCCC3)nc3ccccc32)cc1 yielded area under concentration-response curve of 576

CCc1ccc(OCc2ccccc2C(=O)Nc2ccc3nc(C)cc(N)c3c2)cc1 yielded area under concentration-response curve of 513

CN(C)C/C=C/C(=O)Nc1ccc(C(=O)N2CCC[C@@H](Nc3ncc(Cl)c(-c4c[nH]c5ccccc45)n3)C2)cc1 yielded area under concentration-response curve of 358

COC(=O)N[C@@H](C)CNc1nccc(-c2cn(C(C)C)nc2-c2cc(Cl)cc(N[S+](C)(=O)[O-])c2F)n1 yielded area under concentration-response curve of 566

N#CCNC(=O)c1ccc(-c2ccnc(Nc3ccc(N4CCOCC4)cc3)n2)cc1 yielded area under concentration-response curve of 514

CC(=O)c1cc2c(o1)C(=O)c1ccccc1C2=O yielded area under concentration-response curve of 377

C1=CC2=N/C(=N\c3ccc(OCCN4CCCC4)c(c3)COC/C=C/COCc3cccc2c3)N1 yielded area under concentration-response curve of 436

Nc1nc(N)nc(-c2cc(Cl)ccc2Cl)n1 yielded area under concentration-response curve of 441

C[C@H]1Oc2cc(cnc2N)-c2c(nn(C)c2C#N)CN(C)C(=O)c2ccc(F)cc21 yielded area under concentration-response curve of 557

O=C(Nc1ccc2[nH]nc(-c3ccncc3)c2c1)[C@@H]1CCN(CC(=O)N2CCN(c3ccc(-c4ncccn4)cc3)CC2)C1 yielded area under concentration-response curve of 476

NC(=O)[C@H]1CCS[C@@H]2C[C@]3(CCCN3C(=O)Cc3ccc(NC(=O)COc4ccc(Cl)cc4Cl)cc3)C(=O)N12 yielded area under concentration-response curve of 528

COc1ccc(C(=O)N2CCN(C(=O)/C=C/c3ccc(Br)cc3)CC2)cc1 yielded area under concentration-response curve of 638

O=C1\C=C(/OC2=C1C=CC=C2C3=CC=CC=C3)N4CCOCC4 yielded area under concentration-response curve of 550

C#CCC(Cc1cnc2nc(N)nc(N)c2n1)c1ccc(C(=O)N[C@@H](CCC(=O)O)C(=O)O)cc1 (stereo not given in full) yielded area under concentration-response curve of 509

NCC[S+](=O)([O-])O yielded area under concentration-response curve of 585

COc1ccc(-n2cnc3cc(C(=O)N4CCCCC4)ccc32)cc1 yielded area under concentration-response curve of 534

CCC(C)(C)c1ccc(CC(C)CN2C[C@@H](C)O[C@@H](C)C2)cc1 (stereo not given in full) yielded area under concentration-response curve of 504

C[C@]12C[C@H](O)[C@H]3[C@@H](CC\C4=C\C(=O)\C=C/[C@]34C)[C@@H]1CC[C@]2(O)C(=O)CO yielded area under concentration-response curve of 590

O=C1c2ccccc2-[n+]2ccc3c([nH]c4ccccc43)c21 yielded area under concentration-response curve of 381

NC(=O)c1cnc(N[C@@H]2CCCC[C@@H]2N)nc1Nc1cccc(-n2nccn2)c1 yielded area under concentration-response curve of 572

CN(C)CC/C=C1/c2ccccc2COc2ccc(CC(=O)O)cc21 yielded area under concentration-response curve of 570

COc1cc([C@@H]2c3cc4c(cc3[C@H](O)[C@H]3COC(=O)[C@H]23)OCO4)cc(OC)c1OC yielded area under concentration-response curve of 464

CC#CCn1c(N2CCC[C@@H](N)C2)nc2c1c(=O)n(Cc1nc(C)c3ccccc3n1)c(=O)n2C yielded area under concentration-response curve of 606

CN1CCN(C(=O)c2ccc3cc(CCNc4ncnc5ccc(C#N)cc45)ccc3c2)CC1 yielded area under concentration-response curve of 499

CN(C)CCOc1ccc(-c2nc(-c3ccncc3)c(-c3ccc4c(c3)CC/C4=N\O)[nH]2)cc1 yielded area under concentration-response curve of 521

Nc1cccc2c1CN([C@H]1CCC(=O)NC1=O)C2=O yielded area under concentration-response curve of 544

CC(O)(C#Cc1ccc2c(c1)N(c1nc(N)ncc1Cl)CC2)c1nccs1 (stereo not given) yielded area under concentration-response curve of 560

Cited source for all entries: the supplement of paper PMC10949913
